System: NCI-H1755
Experiment: relative viability (nuclei count vs DMSO), 5 days (fraction); higher = more cells survive
Conditions: first compound 0.2 µM

{"compound": "Cc1csc(=NC2CCCCC2)n1/N=C/c1ccc(O)c(O)c1O [MIM1] + C[C@]1(O)C[C@@H](c2nc(-c3ccc4ccc(-c5ccccc5)nc4c3)c3c(N)nccn32)C1 [Linsitinib] (partner 1 µM)", "relative viability": 1.02}
{"compound": "Cc1csc(=NC2CCCCC2)n1/N=C/c1ccc(O)c(O)c1O [MIM1] + CC(=O)Nc1cccc(-n2c(=O)n(C3CC3)c(=O)c3c(Nc4ccc(I)cc4F)n(C)c(=O)c(C)c32)c1 [Trametinib] (partner 0.02 µM)", "relative viability": 0.719}
{"compound": "Cc1csc(=NC2CCCCC2)n1/N=C/c1ccc(O)c(O)c1O [MIM1] + Nc1ncn([C@H]2C[C@H](O)[C@@H](CO)O2)c(=O)n1 [Decitabine] (partner 2 µM)", "relative viability": 0.724}
{"compound": "CN1CCN(CCOc2cc(OC3CCOCC3)c3c(Nc4c(Cl)ccc5c4OCO5)ncnc3c2)CC1 [Saracatinib] + O=C(CCCCCCC(=O)Nc1ccccc1)NO [Vorinostat] (partner 1 µM)", "relative viability": 0.539}
{"compound": "CCNC(=O)c1noc(-c2cc(C(C)C)c(O)cc2O)c1-c1ccc(CN2CCOCC2)cc1 [Luminespib] + O=C(CCCCCCC(=O)Nc1ccccc1)NO [Vorinostat] (partner 1 µM)", "relative viability": 0.319}

====

System: NCI-H1793
Experiment: relative viability (nuclei count vs DMSO), 5 days (fraction); higher = more cells survive
Settings: first compound 0.06325 µM
Parameter relative viability: see the listing below.
measured-parameter: relative viability

{"molecule": "CCNC(=O)c1noc(-c2cc(C(C)C)c(O)cc2O)c1-c1ccc(CN2CCOCC2)cc1 [Luminespib] + N=C(N)NC(=N)NCCc1ccccc1 [Phenformin] (partner 250 µM)", "numeric-result": 0.102}
{"molecule": "CCNC(=O)c1noc(-c2cc(C(C)C)c(O)cc2O)c1-c1ccc(CN2CCOCC2)cc1 [Luminespib] + COc1cccc2cc(-c3nc([C@H]4CC[C@H](C(=O)O)CC4)n4ncnc(N)c34)[nH]c12 [OSI-027] (partner 0.5 µM)", "numeric-result": 0.125}
{"molecule": "CCNC(=O)c1noc(-c2cc(C(C)C)c(O)cc2O)c1-c1ccc(CN2CCOCC2)cc1 [Luminespib] + CC(=O)c1c(C)c2cnc(Nc3ccc(N4CCNCC4)cn3)nc2n(C2CCCC2)c1=O [Palbociclib] (partner 0.5 µM)", "numeric-result": 0.151}
{"molecule": "CCNC(=O)c1noc(-c2cc(C(C)C)c(O)cc2O)c1-c1ccc(CN2CCOCC2)cc1 [Luminespib] + C[C@]1(O)C[C@@H](c2nc(-c3ccc4ccc(-c5ccccc5)nc4c3)c3c(N)nccn32)C1 [Linsitinib] (partner 1 µM)", "numeric-result": 0.16}
{"molecule": "CCNC(=O)c1noc(-c2cc(C(C)C)c(O)cc2O)c1-c1ccc(CN2CCOCC2)cc1 [Luminespib] + NC(=O)Nc1cc(-c2cccc(F)c2)sc1C(=O)N[C@H]1CCCNC1 [AZD7762] (partner 0.2 µM)", "numeric-result": 0.0769}
{"molecule": "CCNC(=O)c1noc(-c2cc(C(C)C)c(O)cc2O)c1-c1ccc(CN2CCOCC2)cc1 [Luminespib] + CS(=O)(=O)CCNCc1ccc(-c2ccc3ncnc(Nc4ccc(OCc5cccc(F)c5)c(Cl)c4)c3c2)o1 [Lapatinib] (partner 2 µM)", "numeric-result": 0.167}

The measured values listed here are drawn from the supplement of paper PMC10307832.
